Provenance of the data: the Immune Epitope Database (IEDB)

# Target Entity: HLA-A*31:01
# Test Summary: IEDB peptide-MHC binding, purified MHC/competitive/fluorescence; filed as Kd, often an IC50 or EC50 that approximates it; bounds were set here for any values at or beyond the usual limits of such assays
# Run Conditions: source organism: Yersinia pestis Antiqua
Assay Readout: Kd

Prompt: Quick check: Kd of TVWNRLIAR ?
Response: ≤ 1 nM

---

# Target Entity: HLA-A*02:03
# Test Summary: IEDB peptide-MHC binding, purified MHC/competitive/fluorescence; filed as Kd, often an IC50 or EC50 that approximates it; bounds were set here for any values at or beyond the usual limits of such assays
# Run Conditions: source organism: Coxiella burnetii 'MSU Goat Q177'
Assay Readout: Kd

Prompt: Record request: Kd value, item AVDWYQQRI
Response: ≥ 20 µM

---

# Target Entity: HLA-B*57:01
# Test Summary: IEDB peptide-MHC binding, purified MHC/direct/fluorescence; filed as Kd, often an IC50 or EC50 that approximates it; bounds were set here for any values at or beyond the usual limits of such assays
# Run Conditions: source organism: Bacillus anthracis str. 'Ames Ancestor'
Assay Readout: Kd

Prompt: Which Kd value is on record for TKAGMAQYL ?
Response: ≥ 20 µM

---

# Target Entity: HLA-A*02:07
# Test Summary: IEDB peptide-MHC binding, purified MHC/competitive/radioactivity; filed as Kd, often an IC50 or EC50 that approximates it; bounds were set here for any values at or beyond the usual limits of such assays
# Run Conditions: source organism: Homo sapiens
Assay Readout: pKd
// pKd here means minus log10 of the molar concentration (mol/L)

Prompt: Which pKd is listed for YMIDPSGVSY ?
Response: 4.90

---

# Target Entity: HLA-B*08:03
# Test Summary: IEDB peptide-MHC binding, purified MHC/direct/fluorescence; filed as Kd, often an IC50 or EC50 that approximates it; bounds were set here for any values at or beyond the usual limits of such assays
# Run Conditions: source organism: Mycobacterium tuberculosis str. Haarlem
Assay Readout: Kd

Prompt: Requested field: Kd. Item: WMRGRGRAL
Response: ≥ 20 µM

---

# Target Entity: HLA-B*54:01
# Test Summary: IEDB peptide-MHC binding, purified MHC/competitive/radioactivity; filed as Kd, often an IC50 or EC50 that approximates it; bounds were set here for any values at or beyond the usual limits of such assays
# Run Conditions: source organism: Mammarenavirus machupoense
Assay Readout: Kd
Please format your answer as a value with the unit trailing.

Prompt: Param item = TPNQPSAEF ; retrieve measured Kd.
Response: 18.7 µM

---

# Target Entity: HLA-A*02:01
# Test Summary: IEDB peptide-MHC binding, purified MHC/competitive/fluorescence; bounds were set here for any values at or beyond the usual limits of such assays
# Run Conditions: source organism: Variola virus
Assay Readout: pIC50
In plain terms, pIC50 is the concentration in mol/L turned into minus its base-10 logarithm.

Prompt: Bench note: what pIC50 did VFLPNPAFI show?
Response: 6.15

---

# Target Entity: HLA-A*24:02
# Test Summary: IEDB peptide-MHC binding, purified MHC/competitive/radioactivity; filed as Kd, often an IC50 or EC50 that approximates it; bounds were set here for any values at or beyond the usual limits of such assays
# Run Conditions: source organism: Mammarenavirus machupoense
Assay Readout: Kd

Prompt: // query Kd value for entry LCMLNNSFYY
Response: ≥ 47.8 µM
